Measured values drawn from PubChem BioAssay (Tox21) for this set.

# method: qHTS assay to identify small molecule agonists of the retinoic acid receptor (RAR) signaling pathway (AID 1159553)
# conditions: C3RL4 RARE luciferase reporter, agonist, 6 h; series mostly up to 73.3 µM
Inconclusive results are not listed. The source made the active and inactive calls. Calls follow the shape of the dose curve; as a rule, active = well fitted activation curve with a large enough effect in the repeat runs; inconclusive = weak or mixed curves, or effect the other way; inactive = no such curve, though single readings can be large or run the other way.
Bench note: report the call from 1 (active), -1 (inactive)

Please state the recorded outcome for this compound: "CCC1(CC)C(=O)N=C(O)NC1=O"
-1

// outcome(item) with item = CCCCC(CC)COC(=O)OOC(C)(C)C (centres undefined)
-1

Each compound tested received a call. Report the one for "O=Cc1ccccc1" .
-1

Recorded call for "Nc1ccc(N=Nc2ccccc2)cc1" ?
1

Any idea what this test logged for "O=S(=O)(O)F" ?
-1

Outcome logged for "CC(C)(C)c1ccc(OP(=O)(Oc2ccccc2)Oc2ccccc2)cc1" in this assay:
-1

Check the results log: what was the call for "O=C1C[C@@H]2OCC=C3CN4CC[C@]56c7ccccc7N1[C@H]5[C@H]2[C@H]3C[C@H]46" ?
-1

Returns: the outcome recorded for ClC1(Cl)C2(Cl)C3(Cl)C4(Cl)C(Cl)(Cl)C5(Cl)C3(Cl)C1(Cl)C5(Cl)C24Cl (centres undefined) in this assay.
-1

Record lookup: outcome of this test for "CN(C)c1ccc(N)cc1" ?
1

Short answer needed: outcome of this test for "ClCBr" ?
-1

Assay outcome for "COC(=O)c1cc(Oc2ccc(Cl)cc2Cl)ccc1[N+](=O)[O-]" : what was it?
-1

Dear all, I need the recorded test outcome for "NC(=O)C(Cl)Cl" , thank you.
-1

For "CSC(=O)c1c(C(F)F)nc(C(F)(F)F)c(C(=O)SC)c1CC(C)C" , which call appears in the assay record?
-1

Would you mind telling me which call this test gave "CCOP(=O)(OCC)Oc1nc(Cl)c(Cl)cc1Cl" ?
-1

Hi, do you know how "Clc1cc(Cl)c(-c2cc(Cl)c(Cl)cc2Cl)cc1Cl" came out in this test?
-1

Which outcome did this test record for the compound CC(Cc1ccc2c(c1)OCO2)NO (centres undefined) ?
-1

Assay outcome for "ClSC(Cl)(Cl)Cl" : what was it?
-1

Which outcome was assigned to CC(Cc1ccc(O)cc1)NCC(O)c1cc(O)cc(O)c1 (centres undefined) in this test?
-1

# outcome recorded in this test, key = "CCOC(=O)CCN(SN(C)C(=O)Oc1cccc2c1OC(C)(C)C2)C(C)C"
-1
